Data origin: patent US7723358B2

Molecular target: microsomal triglyceride transfer protein (MTP) (Mesocricetus auratus)
Decision: IC50 beneath 100 nM gives 1; IC50 meeting or exceeding 100 nM gives 0.

Example entries and their recorded answers appear below.
INSERT INTO assay_data (compound, assigned_label) VALUES
  ('CCOC(=O)N1CCC(Oc2cccc(NC(=O)c3ccccc3-c3ccc(C(F)(F)F)cc3)c2)CC1', 1),
  ('CCCCOC(=O)CNC(=O)N1CCC(Oc2cccc(NC(=O)c3cccc(C)c3-c3ccc(OC(F)(F)F)cc3)c2)CC1', 0),
  ('Cc1cccc(C(=O)Nc2cccc(OC3CCN(C(=O)c4ccc([N+](=O)[O-])cc4)CC3)c2)c1-c1ccc(OC(F)(F)F)cc1', 0),
  ('COCCOC(=O)N1CCC(Oc2cccc(NC(=O)c3ccccc3-c3ccc(C(F)(F)F)cc3)c2)CC1', 0),
  ('Cc1cccc(C(=O)Nc2cccc(OC3CCN(CC4CCOC4)CC3)c2)c1-c1ccc(OC(F)(F)F)cc1 (stereo not shown)', 0);

Next up:
Say whether its IC50 is strictly beneath 100 nM. Entry: `CCOC(=O)CCC(=O)N1CCC(Oc2cccc(NC(=O)c3ccccc3-c3ccc(OC(F)(F)F)cc3)c2)CC1`
0

----------
Reported IC50 values for the following compounds.
Biological target: microsomal triglyceride transfer protein (MTP) (Mesocricetus auratus)

INSERT INTO results (structure, endpoint, experimental_result) VALUES
  ('CCOC(=O)c1ccc(NC(=O)N2CCC(Oc3cccc(NC(=O)c4cccc(C)c4-c4ccc(OC(F)(F)F)cc4)c3)CC2)cc1', 'IC50', '295 nM'),
  ('COc1ccc(NC(=O)N2CCC(Oc3cccc(NC(=O)c4cccc(C)c4-c4ccc(OC(F)(F)F)cc4)c3)CC2)cc1', 'IC50', '72.8 nM'),
  ('CCCCCCNC(=O)N1CCC(Oc2cccc(NC(=O)c3cccc(C)c3-c3ccc(OC(F)(F)F)cc3)c2)CC1', 'IC50', '45.5 nM');

Here is another compound to look at.
Give microsomal triglyceride transfer protein (MTP) (Mesocricetus auratus) IC50 for `CSc1ccc(NC(=O)N2CCC(Oc3cccc(NC(=O)c4cccc(C)c4-c4ccc(OC(F)(F)F)cc4)c3)CC2)cc1`
85.7 nM

----------
Molecular target: microsomal triglyceride transfer protein (MTP) (Mesocricetus auratus, UniProt P55158)
Decision: IC50 beneath 200 nM gives MET; IC50 meeting or exceeding 200 nM gives NOT MET.

Example entries and their recorded answers appear below.
INSERT INTO measurements (structure, assigned_label) VALUES
  ('O=C(Nc1cccc(OC2CCN(C(=O)c3ccccc3)CC2)c1)c1ccccc1-c1ccc(OC(F)(F)F)cc1', 'NOT MET'),
  ('CC(C)(C)OC(=O)N1CCC(Oc2cccc(NC(=O)c3ccccc3-c3ccc(OC(F)(F)F)cc3)c2)CC1', 'NOT MET'),
  ('COc1ccc(CC(=O)N2CCC(Oc3cccc(NC(=O)c4cccc(C)c4-c4ccc(OC(F)(F)F)cc4)c3)CC2)cc1', 'MET');

Say whether its IC50 is strictly beneath 200 nM. Entry: `COc1ccc(CC(=O)N2CCC(Oc3cccc(NC(=O)c4ccccc4-c4ccc(OC(F)(F)F)cc4)c3)CC2)cc1OC`
NOT MET

Say whether its IC50 is strictly beneath 200 nM. Entry: `COC(=O)N1CCC(Oc2cccc(NC(=O)c3ccccc3-c3ccc(C(F)(F)F)cc3)c2)CC1`
MET

Say whether its IC50 is strictly beneath 200 nM. Entry: `Cc1cccc(C(=O)Nc2cccc(OC3CCN(C(=O)c4ccco4)CC3)c2)c1-c1ccc(OC(F)(F)F)cc1`
NOT MET

Say whether its IC50 is strictly beneath 200 nM. Entry: `Cc1cccc(C(=O)Nc2cccc(OC3CCN(C(=O)C(C)C)CC3)c2)c1-c1ccc(OC(F)(F)F)cc1`
MET

Say whether its IC50 is strictly beneath 200 nM. Entry: `Cc1cccc(C(=O)Nc2cccc(OC3CCN(S(=O)(=O)c4cccc5nonc45)CC3)c2)c1-c1ccc(OC(F)(F)F)cc1`
NOT MET

Say whether its IC50 is strictly beneath 200 nM. Entry: `C/C=C/C(=O)N1CCC(Oc2cccc(NC(=O)c3cccc(C)c3-c3ccc(OC(F)(F)F)cc3)c2)CC1`
MET

Say whether its IC50 is strictly beneath 200 nM. Entry: `COC(=O)N1CCC(Oc2cccc(NC(=O)c3cccc(C)c3-c3ccc(OC(F)(F)F)cc3)c2)CC1`
MET

Say whether its IC50 is strictly beneath 200 nM. Entry: `CCOC(=O)CNC(=O)N1CCC(Oc2cccc(NC(=O)c3cccc(C)c3-c3ccc(OC(F)(F)F)cc3)c2)CC1`
MET

Say whether its IC50 is strictly beneath 200 nM. Entry: `Cc1cccc(C(=O)Nc2cccc(OC3CCN(C(=O)c4ccccc4)CC3)c2)c1-c1ccc(OC(F)(F)F)cc1`
MET

----------
Sequence of the target: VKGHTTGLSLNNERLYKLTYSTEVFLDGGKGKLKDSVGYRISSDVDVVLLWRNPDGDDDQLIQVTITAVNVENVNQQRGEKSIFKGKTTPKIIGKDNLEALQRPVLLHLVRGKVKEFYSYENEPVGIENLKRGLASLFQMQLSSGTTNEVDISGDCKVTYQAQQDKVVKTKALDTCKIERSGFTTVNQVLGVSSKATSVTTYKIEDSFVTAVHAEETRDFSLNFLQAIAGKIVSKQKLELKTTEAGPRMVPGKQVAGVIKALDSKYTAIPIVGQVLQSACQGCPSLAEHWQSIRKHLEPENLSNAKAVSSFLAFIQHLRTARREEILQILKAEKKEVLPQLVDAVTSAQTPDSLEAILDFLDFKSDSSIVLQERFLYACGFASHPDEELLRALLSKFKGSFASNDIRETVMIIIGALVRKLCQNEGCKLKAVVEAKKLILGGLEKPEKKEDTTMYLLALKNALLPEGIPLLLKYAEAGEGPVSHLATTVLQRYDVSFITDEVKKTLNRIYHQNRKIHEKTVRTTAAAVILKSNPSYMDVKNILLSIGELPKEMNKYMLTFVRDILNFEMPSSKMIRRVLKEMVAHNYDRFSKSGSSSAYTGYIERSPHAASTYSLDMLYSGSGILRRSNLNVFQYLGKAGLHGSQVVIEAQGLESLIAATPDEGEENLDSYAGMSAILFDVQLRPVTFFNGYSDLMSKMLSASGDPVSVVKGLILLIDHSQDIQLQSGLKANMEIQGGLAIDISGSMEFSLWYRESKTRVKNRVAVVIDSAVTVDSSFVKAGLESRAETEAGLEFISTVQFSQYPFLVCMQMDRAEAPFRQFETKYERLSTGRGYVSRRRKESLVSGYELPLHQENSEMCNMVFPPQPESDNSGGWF
Reported pIC50 values for the following molecules.
Worth noting: pIC50 values are minus log10 of concentrations stated in mol/L.

Record excerpt, results attached:
INSERT INTO results (molecule, experimental_result) VALUES
  ('O=C(Nc1cccc(OC2CCN(C(=O)c3cccnc3)CC2)c1)c1ccccc1-c1ccc(OC(F)(F)F)cc1 [Example 118]', 6.70),
  ('Cc1cccc(C(=O)Nc2cccc(OC3CCN(C(=O)Nc4cccc(C(F)(F)F)c4)CC3)c2)c1-c1ccc(OC(F)(F)F)cc1 [Example 24]', 6.34),
  ('Cc1cccc(C(=O)Nc2cccc(OC3CCN(C(=O)Nc4ccccc4)CC3)c2)c1-c1ccc(OC(F)(F)F)cc1 [Example 11]', 6.46),
  ('Cc1cccc(C(=O)Nc2cccc(OC3CCN(Cc4cccs4)CC3)c2)c1-c1ccc(OC(F)(F)F)cc1 [Example 59]', 6.73),
  ('Cc1ccc(C(=O)N2CCC(Oc3cccc(NC(=O)c4cccc(C)c4-c4ccc(OC(F)(F)F)cc4)c3)CC2)cc1 [Example 116]', 7.31),
  ('CCCCNC(=O)N1CCC(Oc2cccc(NC(=O)c3cccc(C)c3-c3ccc(OC(F)(F)F)cc3)c2)CC1 [Example 33]', 6.94),
  ('COC(=O)c1ccccc1NC(=O)N1CCC(Oc2cccc(NC(=O)c3cccc(C)c3-c3ccc(OC(F)(F)F)cc3)c2)CC1 [Example 36]', 7.29),
  ('Cc1ccc(CN2CCC(Oc3cccc(NC(=O)c4cccc(C)c4-c4ccc(OC(F)(F)F)cc4)c3)CC2)cc1 [Example 85]', 6.41);

Would you mind telling me what pIC50 value was observed for Cc1cccc(C(=O)Nc2cccc(OC3CCN(C(=O)NCc4ccccc4)CC3)c2)c1-c1ccc(OC(F)(F)F)cc1 [Example 35] ?
6.92

Would you mind telling me what pIC50 value was observed for Cc1ccc(C(=O)N2CCC(Oc3cccc(NC(=O)c4ccccc4-c4ccc(OC(F)(F)F)cc4)c3)CC2)cc1 [Example 130] ?
6.66

Would you mind telling me what pIC50 value was observed for Cc1cccc(C(=O)Nc2cccc(OC3CCN(C(=O)Nc4ccc(N(C)C)cc4)CC3)c2)c1-c1ccc(OC(F)(F)F)cc1 [Example 51] ?
6.95
